Target: Bacillus anthracis DNA replicative helicase (Bacillus anthracis)
Assay: biochemical
Format: biochemical
READOUT_KIND: Activity vs B. anthracis helicase (in words)

In [3]: df
Out[3]:
                                 cpd_smiles  experimental_value
0  COc1cc(CNc2nc3ccc4nc(SC)sc4c3s2)cc(OC)c1OC     lost activities
1  COc1cc(/C=N/c2nc3ccc4nc(SC)sc4c3s2)cc(OC)c1OC     lost activities
